tested on: OVCAR-4; assay: NCI tumour cell line growth inhibition, 48 h
Active and inactive are the calls of the source. Cut-off read from the data, not from the text of the source: active = GI50 up to about 1.1 µM and inactive = higher.
ENDPOINT_NAME: GI50

MOLECULE: CN(C)/C=N/CC(O)c1ccccc1 (stereo not given)
MEAS_VALUE: > 100 µM (inactive)
//
MOLECULE: C#C[C@H](CCCC)OC(=O)N[C@H](C)c1ccccc1
MEAS_VALUE: 42 µM (inactive)
//
MOLECULE: CC(=O)N1C2=CCCC2(C)c2ccccc21 (stereo not given)
MEAS_VALUE: 77.6 µM (inactive)
//
MOLECULE: N#Cc1c(-c2ccccc2)c2c([nH]c1=O)-c1cc([N+](=O)[O-])ccc1CCC2
MEAS_VALUE: 34 µM (inactive)
//
MOLECULE: COC(=O)C1=C(C)N(NC(=O)Nc2ccccc2)C2(N)N(NC(=O)Nc3ccccc3)C(C)=C(C(=O)OC)C12C(=O)OC (stereo not given)
MEAS_VALUE: 64.9 µM (inactive)
//
MOLECULE: CCN(CC)CCCNc1[nH]c2ccccc2c2nc3ccc(OC)cc3c1-2
MEAS_VALUE: 1.21 µM (inactive)
//
MOLECULE: CCC(C)C1NC(=O)C(NC(=O)C(CC(C)C)N(C)C(=O)[C@@H]2CC(O)CN2C(=O)[C@H](C)O)C(C)OC(=O)[C@H](Cc2ccc(OC)cc2)N(C)C(=O)[C@@H]2CCCN2C(=O)[C@H](CC(C)C)NC(=O)C(C)C(=O)[C@H](C(C)C)OC(=O)CC1O (stereo not given in full)
MEAS_VALUE: 0.17 µM (active)
//
MOLECULE: O=C(c1cc(Cl)cc(Cl)c1)N1CCN(C(=O)c2cc(Cl)cc(Cl)c2)C1=S
MEAS_VALUE: 19.1 µM (inactive)
//
MOLECULE: O=C(Nc1nc2ncn(CCO)c2c(=O)[nH]1)c1ccccc1
MEAS_VALUE: > 100 µM (inactive)
//
MOLECULE: Cc1cccc(NC(=S)N/N=C2\C(=O)Nc3ccccc32)c1
MEAS_VALUE: 34.9 µM (inactive)
//
MOLECULE: COC(=O)c1ccc(/C=C/S(=O)(=O)c2ccccc2)cc1
MEAS_VALUE: > 100 µM (inactive)
//
MOLECULE: CC(C)C1=CC2=C(C(=O)C1=O)C13CCCC(C)(C)C1CC2OC3=O (stereo not given)
MEAS_VALUE: 18.6 µM (inactive)
//
MOLECULE: CC1=C(C(=O)Nc2ccccc2C)C(c2ccc(Cl)c(Cl)c2)C(C(=O)Nc2ccccc2C)=C(C)N1
MEAS_VALUE: 16.4 µM (inactive)
//
MOLECULE: CC#CCCCC1(C)CCNC1=S (stereo not given)
MEAS_VALUE: > 10 µM (inactive)
//
MOLECULE: Cc1ccc(/C=N/Nc2nc3ccccc3s2)s1
MEAS_VALUE: 34.4 µM (inactive)
//
MOLECULE: Cc1ccc(S(=O)(=O)NC2(C=O)CCCC3CCCCC32)cc1 (stereo not given)
MEAS_VALUE: > 100 µM (inactive)
//
MOLECULE: NNC(=S)N/N=C(\C(=O)Nc1cccc(O)c1)C1C(=O)NC(=S)NC1=O
MEAS_VALUE: 36.3 µM (inactive)
//
MOLECULE: COC1(OC)C(N(C)C)=C(Cl)C(=O)/C1=C/C=O
MEAS_VALUE: > 100 µM (inactive)
//
MOLECULE: CCC(Sc1cc(Cl)c(C)cc1S(=O)(=O)Nc1nc(N)nc(N(C)C)n1)C(=O)O (stereo not given)
MEAS_VALUE: > 10 µM (inactive)
//
MOLECULE: Cc1c2n(c(=O)[nH]c1=O)C1OC(CO)C(O2)C1O (stereo not given)
MEAS_VALUE: > 100 µM (inactive)
